# Tested on: Clostridium perfringens ATCC 13124
# Type: cell-based
# assay conditions: brain heart infusion broth, pH 6.0, 30° C., 0% oxygen
measured property: MIC value

Would you mind telling me what MIC value value was observed for CCCCCCCCC=CCCCCCCCC(=O)OC(C)C(=O)O (centres unmarked) [Olacta, Octadecenoyl-lactylate] ?
0.02 % (w/v)

# query: MIC value of entry CCCCCCCC(=O)OC(C)C(=O)[O-].[Na+] (centres unmarked) [Octanoyl-lactylate]
0.05 % (w/v)

Value lookup for MIC value; key = CCCCCCCCCCCCCC(=O)OC(C)C(=O)O (centres unmarked) [Tetradecanoyl-lactylate, tetradecanoyl-lactylate]
0.001 % (w/v)

Given the entry CCCCCCCCCCCCCCOS(=O)(=O)[O-].[Na+] [Sodium tetradecyl sulfate, reference compound] , report its measured MIC value.
0.001 % (w/v)

What does the data say about its MIC value? Entry: CCCCCCCCCC(=O)OC(C)C(=O)O (centres unmarked) [Decanoyl-lactylate]
0.04 % (w/v)

MIC value lookup needed for CCCCCCCCCCCC(=O)OC(C)C(=O)O (centres unmarked) [Dodecanoyl-lactylate] , thanks.
0.002 % (w/v)

Name the reported MIC value value associated with the compound CCCCCCCCCCCCCCCC(=O)OC(C)C(=O)O (centres unmarked) [Hexadecanoyl-lactylate]
0.002 % (w/v)

Form field: reported MIC value of CCCCCCCCCCCCCC(=O)O [Tetradecanoic acid, reference compound]
>0.01 % (w/v)
